Tested Target: Fibroblast growth factor 10 (Homo sapiens) (UniProt O15520)
Sequence (O15520 whole entry, looked up): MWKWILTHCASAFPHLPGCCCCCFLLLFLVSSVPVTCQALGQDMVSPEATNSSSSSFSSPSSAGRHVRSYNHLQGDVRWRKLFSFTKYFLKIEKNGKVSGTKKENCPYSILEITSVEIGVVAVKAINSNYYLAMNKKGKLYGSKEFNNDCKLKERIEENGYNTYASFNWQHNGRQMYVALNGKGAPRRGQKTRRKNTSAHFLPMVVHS
Protocol Summary: compounds binding fibroblast growth factor 10 – biochemical, small-molecule microarray, 635 nm fluorescence, primary screen (AID 1102)
Experimental Setup: FGF10 binding, fluorescence 635 nm, higher = more signal
Readout Name: composite z-score

C=C(/C(=C/C[C@H](OC(=O)c1ccncc1)c1ccc(OCCO)cc1)c1cc(C(=O)OC)ccc1OC)C(C)C = 1.42
[N-]=[N+]=NCc1ccccc1[C@@H]1OC(c2ccc(OCCCO)cc2)=N[C@]1(CCS(=O)(=O)c1ccccc1)C(N)=O = 1.6
C=CC[C@]1(C(=O)NCc2ccccc2)N=C(c2ccc(OCCCO)cc2)O[C@H]1c1ccccc1CN=[N+]=[N-] = 1.19
C#CCN1[C@@H](Cc2ccc(O)cc2)C(=O)O[C@H](Cc2ccccc2)[C@@H]1/C=C/C1CC1 = 0.172
C=C(CCCC)/C(=C/C[C@H](OC(=O)c1ccncc1)c1ccc(OCCO)cc1)c1cc(C(=O)OC)ccc1OC = 0.752
CCOc1cc(C(O)C2C=CC3C(=O)N(c4ccccc4)C(=O)C3N2Nc2ccc(C(C)C)cc2)ccc1O (centres undefined) = 0.726
COc1cc2c(cc1O)C(c1cccs1)N(Cc1ccc([N+](=O)[O-])o1)CC2 (centres undefined) = 0.876
O=C(CS)NCCCCCNC(=O)[C@H]1C[C@H]2C(=O)NCC(=O)N2[C@H]1c1ccc(O)cc1 = -1.04
COc1ccc([Si](C)(C)[C@@H]2[C@@H](CCn3cc([C@H](O)c4ccccc4)nn3)O[C@]3(C(=O)N(Cc4cccc(N5CCC5=O)c4)c4ccccc43)[C@H]2C)cc1 = 0.483
OCCCC1=CC(C2CC2)N(Cc2cccc(OC(F)(F)F)c2)CC1 (centres undefined) = -0.963
O=C1C2C=CC(C(O)c3c(F)cccc3Cl)N(Nc3ccccc3F)C2C(=O)N1c1ccccc1 (centres undefined) = 1.28
O=C(CS)NCCCCCNC(=O)[C@@H]1C[C@@H]2C(=O)NCC(=O)N2[C@@H]1c1cccc(OCCO)c1 = 0.18
CC(=O)n1cc(C(O)C2C=CC3C(=O)NC(=O)C3N2Nc2ccccn2)c2ccccc21 (centres undefined) = 0.168
COCCOC(=O)N1C(=O)[C@@]2(c3cc(C#CC4=CCCCC4)ccc31)[C@H](C(N)=O)[C@H]1C(=O)O[C@H](c3ccccc3)[C@H](c3ccccc3)N1[C@@H]2c1ccc(O)cc1 = 1.15
O=C1C2C=CC(C(O)c3ccc(-c4ccccc4)s3)N(Nc3ccccc3)C2C(=O)N1c1ccccc1 (centres undefined) = 0.722
CCN(CC)c1ccc(N2CC=CC34O[C@@H]5/C=C\CCC(C)OC(=O)C5[C@H]3C(=O)N(CCCCCO)[C@@H]4C2=O)cc1 (some centres undefined) = -0.976
COCCOC(=O)N1C(=O)[C@@]2(c3cc(C#CC4(O)CCCCCC4)ccc31)[C@H](C(=O)Nc1nc3ccccc3s1)[C@H]1C(=O)O[C@H](c3ccccc3)[C@H](c3ccccc3)N1[C@@H]2c1ccc(OCCO)cc1 = 1.25
O=C1C2C=CC(C(O)c3ccc4c(c3)OCO4)N(Nc3ccc([N+](=O)[O-])cc3)C2C(=O)N1c1ccccc1 (centres undefined) = 0.67
COCCOC(=O)N1C(=O)[C@@]2(c3ccccc31)[C@H](C(N)=O)[C@H]1C(=O)O[C@H](c3ccccc3)[C@H](c3ccccc3)N1[C@@H]2c1ccc(O)cc1 = 0.0392
CC(C)CCC[C@@H](C)[C@H]1CC[C@@]2(C)C3=C(CC[C@]12C)[C@@]1(C)CC[C@H](OC(=O)c2ccc(C(F)(F)F)nc2)C(C)(C)C1CC3 (some centres undefined) = 0.595
Cc1ccc(C2C3C(=O)CC4C(=O)N(c5ccccc5)C(=O)C4C3CN2S(=O)(=O)c2ccc(C)cc2)cc1 (centres undefined) = 0.924
CCN(CC)c1ccc(N2CC=CC34O[C@@H]5C=CCOC(=O)[C@@H]5[C@H]3C(=O)N(CCCCCCO)[C@@H]4C2=O)cc1 (some centres undefined) = -0.655
O=C1C2C=CC(C(O)C=Cc3ccc([N+](=O)[O-])cc3)N(Nc3ccccc3F)C2C(=O)N1c1ccccc1 (centres undefined) = 1.13
CC(c1ccccc1)C(O)C1C=CC2C(=O)N(c3ccccc3)C(=O)C2N1Nc1ccccc1 (centres undefined) = 1.4
COCCOC(=O)N1C(=O)[C@@]2(c3cc(C#CC4(O)CCCCCC4)ccc31)[C@H](C(=O)Nc1nc3ccccc3s1)[C@H]1C(=O)O[C@H](c3ccccc3)[C@H](c3ccccc3)N1[C@@H]2c1ccccc1OCCO = 1.3
CC(C)NC(=O)[C@@H]1c2ccccc2C(=O)N(C(C)C)[C@H]1c1ccc(CO)cc1 = -0.633
NCCCCCNC(=O)[C@H]1C[C@H]2C(=O)N3CCC[C@H]3C(=O)N2[C@H]1c1ccc(O)cc1 = 1.01
[N-]=[N+]=Nc1ccccc1[C@H]1OC(c2ccc(OCCCO)cc2)=N[C@@]1(CCS(=O)(=O)c1ccccc1)C(=O)NCc1ccccc1 = 1.18
C=CCN1Cc2ccccc2[C@@H]2OC(c3ccc(OCCCO)cc3)=N[C@]2(CCS(=O)(=O)c2ccccc2)C1=O = 1.4
